Origin of the recorded values: ChEMBL document CHEMBL4007428

- targetOrTestSystem: Transmembrane protease serine 6 (Homo sapiens, UniProt Q8IU80)
- Sequence (Q8IU80 whole entry): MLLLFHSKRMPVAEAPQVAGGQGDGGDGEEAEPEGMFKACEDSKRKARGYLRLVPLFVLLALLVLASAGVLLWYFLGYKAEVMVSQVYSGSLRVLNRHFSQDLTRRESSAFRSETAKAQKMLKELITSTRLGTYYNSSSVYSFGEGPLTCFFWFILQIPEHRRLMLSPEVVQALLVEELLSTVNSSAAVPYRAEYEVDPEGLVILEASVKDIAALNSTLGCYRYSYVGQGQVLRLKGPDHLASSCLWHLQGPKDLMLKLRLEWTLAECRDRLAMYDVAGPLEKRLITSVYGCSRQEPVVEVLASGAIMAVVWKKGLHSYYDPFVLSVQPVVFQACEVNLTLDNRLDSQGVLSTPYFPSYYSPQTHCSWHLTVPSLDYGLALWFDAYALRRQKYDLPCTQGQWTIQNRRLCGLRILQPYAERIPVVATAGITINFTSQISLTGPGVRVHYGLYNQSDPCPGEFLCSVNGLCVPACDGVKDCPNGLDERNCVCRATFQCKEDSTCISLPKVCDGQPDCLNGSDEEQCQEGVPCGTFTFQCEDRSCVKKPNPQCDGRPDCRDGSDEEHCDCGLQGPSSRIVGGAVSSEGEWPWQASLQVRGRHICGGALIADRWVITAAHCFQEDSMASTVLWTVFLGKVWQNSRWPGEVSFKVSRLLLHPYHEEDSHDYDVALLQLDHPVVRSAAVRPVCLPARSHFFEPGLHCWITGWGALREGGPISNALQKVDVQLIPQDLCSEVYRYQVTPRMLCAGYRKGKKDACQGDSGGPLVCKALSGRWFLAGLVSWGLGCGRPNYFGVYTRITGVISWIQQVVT
- testProtocol: Inhibition of recombinant human C-terminal V5-His-tagged matriptase-2 expressed in Drosophila S2 cells using Boc-Gln-Ala-ArgAMC as substrate measured for 1200 mins by fluorescence assay
Assignment: determine reported Ki for the given compounds.

CC(C)[C@H](NC(=O)C(Cc1ccc(O)cc1)NC(=O)CCc1ccc(O)cc1)C(=O)N[C@@H](CCCNC(=N)N)C(=O)c1nc2ccccc2s1 (single isomer, unassigned) ... 1.2 to 2 nM

Would you be so kind as to report Ki for each listed record?
1. CC(C)[C@H](NC(=O)[C@H](Cc1cscn1)NC(=O)CCc1ccccc1)C(=O)N[C@@H](CCCNC(=N)N)C(=O)c1nc2ccccc2s1
2. CC[C@H](NC(=O)[C@H](CCc1ccccc1)NC(=O)CCc1ccccc1)C(=O)N[C@@H](CCCNC(=N)N)C(=O)c1nc2ccccc2s1

Result:
1. 0.4 to 1.2 nM
2. 1.5 to 1.6 nM
